System: MCF7/6
protocol text: Antiinvasive activity against human MCF7/6 cells precultured with 9 day old chick embryo heart tissue fragment at 10 micromol/l by chick heart invasion assay
Format: functional, cell-based
Activity calls are given as the source filed them. The rule behind the calls is not given here.
Please state which outcome applies, choosing from YES for active, NO for inactive

What call does the record list for O=C(/C=C/c1ccc(O)cc1)CC(=O)/C=C/c1ccc(O)cc1 [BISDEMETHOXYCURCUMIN] ? YES

Can you look up the reported call for COc1cc(/C=C/C(=O)CC(=O)/C=C/c2ccc(O)c(OC)c2)ccc1O [CURCUMIN] for me? YES

So what was the verdict on COc1cc(C(=O)/C=C/C=C/c2ccccc2)cc(OC)c1OC in this test? YES

Test call, this molecule: COc1cc(C(=O)/C=C/c2ccc(F)cc2)cc(OC)c1OC YES

For O=C(/C=C/C=C/c1ccccc1)c1ccccc1 , what call appears in the results of this test? NO

Answer briefly: the call reported for O=C(/C=C/c1ccccc1)c1ccccc1 [CHALCONE] in this assay. YES

For this molecule, state the assay outcome: COc1cc(C(=O)/C=C/C=C/c2ccc(F)cc2)cc(OC)c1OC YES

Call for entry O=C(/C=C/c1ccccc1)/C=C/c1ccccc1 : YES

For this molecule, state the assay outcome: O=C(/C=C/C=C/c1ccccc1)/C=C/c1ccccc1 YES

GET /call?item= O=C(/C=C/C=C/c1ccccc1)c1ccc(Cl)cc1 returns the recorded outcome of this test. NO

----------
protocol text: Antiinvasive activity against human MCF7/6 cells precultured with 9 day old chick embryo heart tissue fragment assessed as lowest concentration by chick heart invasion assay
Type: functional
readout: logMIC
Quick one: just the number, no unit, thanks!

Quick note, logMIC for COc1cc(C(=O)/C=C/C=C/c2ccccc2)cc(OC)c1OC landed at 1

Per the record, O=C(/C=C/c1ccccc1)/C=C/c1ccccc1 has logMIC of 0

Entry O=C(/C=C/C=C/c1ccccc1)c1ccccc1 , logMIC reported as 2

Lab book: logMIC of O=C(/C=C/C=C/c1ccccc1)c1ccc(F)cc1 noted as 0

The compound COc1cc(/C=C\c2ccc(F)cc2)cc(OC)c1OC showed logMIC equal to 1

Lookup result for COc1cc(/C=C/c2ccc(F)cc2)cc(OC)c1OC ; measured logMIC: 0

Quick note, logMIC for COc1cc(C(=O)/C=C/C=C/c2ccc(F)cc2)cc(OC)c1OC landed at 1

# logMIC (compound: O=C(/C=C/C=C/c1ccccc1)c1ccc(Cl)cc1 ) is 3

logMIC reported for this compound O=C(/C=C/c1ccc(O)cc1)CC(=O)/C=C/c1ccc(O)cc1 [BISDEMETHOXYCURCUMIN] : 1

Value of logMIC reported for the compound COc1cc(/C=C/C(=O)CC(=O)/C=C/c2ccc(O)c(OC)c2)ccc1O [CURCUMIN] is 1

So, O=C(/C=C/c1ccccc1)c1ccccc1 [CHALCONE] ? Its logMIC was 1

----------
protocol text: Antiinvasive activity against human MCF7/6 cells precultured with 9 day old chick embryo heart tissue fragment assessed as lowest concentration by chick heart invasion assay
Type: functional
What logMIC was measured for each of the following?
Could you respond with only the numeric value?

Lookup result for O=C(/C=C/C=C/c1ccccc1)/C=C/c1ccccc1 ; measured logMIC: 0

Recorded result, C(=C\c1ccccc1)/c1ccccc1 , logMIC: -1

// logMIC lookup, compound = COc1cc(C(=O)/C=C/c2ccc(F)cc2)cc(OC)c1OC , result: -2
